read-out: Interleukin 6 (IL6), IL6 (gene 3569); test: LTEA_HepaRG_IL6: Life Technologies and Expression Analysis (LTEA) Assay for Interleukin 6 (IL6) using HepaRG (AID 2283509); conditions: mRNA level, 48 h; actives raise or lower the signal
The source made the active and inactive calls. How the source made its calls: active means hit-call score of the fitted dose curve at least 0.9, where 1 is the maximum; inactive means score below 0.9.
Possible outcomes: active, inactive

>>> answer_label("CC(C)O.CC(C)O.OCCN(CCO)CCO.OCCN(CCO)CCO.[Ti]")
"inactive"
>>> answer_label("CN(C)C(=S)S")
"inactive"
>>> answer_label("Cc1cc(C)cc(C)c1")
"inactive"
>>> answer_label("Clc1cccc(Cl)c1")
"inactive"
>>> answer_label("Oc1cc(Cl)c(Cl)cc1Cl")
"inactive"
>>> answer_label("O=C(O)C1(c2ccc3c(c2)OC[C@H](Cc2ccc(-c4ccccc4)cc2)[C@H]3O)CCCC1")
"active"
>>> answer_label("OCCN(CCO)CCO")
"inactive"
>>> answer_label("N#Cc1cccnc1")
"inactive"

---

Experiment: CCTE_Shafer_MEA_dev_AB: CCTE's Alamar Blue Assay for Cytotoxicity in the Neural Network Formation Assay, Shafer Lab (AID 2284083);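 further: resazurin reduction fluorescence as viability of cultured neurons; twelve days of exposure from plating with re-dosing on DIV 5 and 9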
Procedure: CCTE_Shafer_MEA_dev assay is conducted using Axion Biosystems 48 well microelectrode array (MEA) plates and Maestro recording system. Each well of the MEA plate contains a grid of 16 microelectrodes embedded in the culture surface. Electrically active cells, such as neurons, can be cultured over the electrodes, and electrical activity in these cells can be recorded extracellularly. […]
Results filed as inconclusive are left out. Calls of active or inactive are those of the source. Rule for the calls: active = hit-call score of the fitted dose curve at least 0.9, where 1 is the maximum; inconclusive = response in the unintended direction; inactive = score below 0.9.
The following compounds are listed with their measured AC50 values.
Measured parameter: AC50

>>> observed_value("OC(Cc1ccccc1Cl)(Cn1[nH]cnc1=S)C1(Cl)CC1 (stereo not given)")
"71.3 µM (active)"
>>> observed_value("Cc1ccccc1OP(=O)(Oc1ccccc1C)Oc1ccccc1C")
"21.1 µM (active)"
>>> observed_value("CCOCn1c(-c2ccc(Cl)cc2)c(C#N)c(Br)c1C(F)(F)F")
"20.4 µM (active)"
>>> observed_value("NC(=O)c1ccc(N)nc1")
"8.53 µM (active)"

---

read-out: Plasminogen activator inhibitor-1 (PAI1), SERPINE1 (gene 5054); test: BSK_MyoF_PAI1: BioMAP Diversity Plus: MyoF Assay for Plasminogen activator inhibitor-1 (PAI1) Biomarker Activity (AID 2284256); details: primary human lung fibroblasts
Activity calls are given as the source filed them. How the source made its calls: active means hit-call score of the fitted dose curve at least 0.9, where 1 is the maximum; inactive means score below 0.9.
Possible outcomes: active, inactive

>>> answer_label("CCOP(=S)(OCC)OP(=S)(OCC)OCC")
"inactive"
>>> answer_label("O=S(=O)(c1ccc(Cl)cc1)c1cc(Cl)c(Cl)cc1Cl")
"inactive"
>>> answer_label("COCC(=O)N(c1c(C)cccc1C)[C@H](C)C(=O)OC")
"inactive"
>>> answer_label("Cc1cc(C(C)(C)c2ccc(O)c(C)c2)ccc1O")
"inactive"
>>> answer_label("CCOP(=O)(OCC)SCCSCC")
"inactive"
>>> answer_label("c1ccc(-c2cccc(-c3ccccc3)c2)cc1")
"inactive"
>>> answer_label("CCOP(=S)(OCC)SCS(=O)(=O)C(C)(C)C")
"inactive"
>>> answer_label("C[C@]12CC[C@@H](O)C[C@@H]1CC[C@@H]1[C@@H]2CC[C@]2(C)C(=O)CC[C@@H]12")
"inactive"
>>> answer_label("CC(C)(COCC1CO1)COCC1CO1 (centres undefined)")
"inactive"
>>> answer_label("CC(C=O)Cc1ccc2c(c1)OCO2 (centres undefined)")
"inactive"
>>> answer_label("C#CCOC(=O)/C=C(C)/C=C/CC(C)CCCC(C)C (centres undefined)")
"inactive"
>>> answer_label("CCOC(=O)CC(=O)CCl")
"inactive"
>>> answer_label("OC(Cc1ccccc1Cl)(Cn1[nH]cnc1=S)C1(Cl)CC1 (centres undefined)")
"active"
>>> answer_label("CC(C)=CC1C(C(=O)OCc2cccc(Oc3ccccc3)c2)C1(C)C (centres undefined)")
"inactive"
>>> answer_label("OC(Cc1ccccc1Cl)(Cn1cncn1)C1(Cl)CC1 (centres undefined)")
"inactive"
>>> answer_label("Nc1ccc(N)cc1")
"inactive"
>>> answer_label("CCOP(=O)(OCC)OC(=CCl)c1ccc(Cl)cc1Cl")
"inactive"
>>> answer_label("O=[N+]([O-])c1ccc(Nc2ccccc2)cc1")
"inactive"
>>> answer_label("Oc1ccc(Cc2ccc(O)cc2)cc1")
"inactive"

---

read-out: Vascular cell adhesion molecule 1 (VCAM1), VCAM1 (gene 7412); test: BSK_hDFCGF_VCAM1: BioMAP Diversity Plus: hDFCGF Assay for Vascular cell adhesion molecule 1 (VCAM1) Biomarker Activity (AID 2283065); conditions: primary human foreskin fibroblasts; actives raise or lower the signal
Activity calls are given as the source filed them. The calls were made as follows: active = hit-call score of the fitted dose curve at least 0.9, where 1 is the maximum; inactive = score below 0.9.
Possible outcomes: active, inactive

>>> answer_label("Oc1ccc(Cc2ccc(O)cc2)cc1")
"inactive"
>>> answer_label("CC(C)(C)c1cc([N+](=O)[O-])cc(C(C)(C)C)c1O")
"inactive"
>>> answer_label("Oc1cc(Cl)c(Cl)cc1Cl")
"active"
>>> answer_label("[Cl][Sn]([c]1ccccc1)([c]1ccccc1)[c]1ccccc1")
"active"
>>> answer_label("CC(C)=CC1C(C(=O)OCc2cccc(Oc3ccccc3)c2)C1(C)C (stereo not drawn)")
"active"
>>> answer_label("O=C(CCl)NCO")
"inactive"
>>> answer_label("Cc1ccccc1OP(=O)(Oc1ccccc1C)Oc1ccccc1C")
"active"
>>> answer_label("O=S(=O)(C(Cl)(Cl)Cl)C(Cl)(Cl)Cl")
"active"
>>> answer_label("CCOC(=O)CC(=O)CCl")
"active"
>>> answer_label("Cc1c([N+](=O)[O-])c(C)c([N+](=O)[O-])c(C(C)(C)C)c1[N+](=O)[O-]")
"inactive"
>>> answer_label("O=C(N[C@H]1CN2CCC1CC2)c1ccc2c(c1)OCCO2")
"inactive"
>>> answer_label("OCCN(CCO)CCO")
"inactive"
>>> answer_label("CN(C)C(=S)S")
"active"

---

target: human Thyroid Receptor alpha (THRa1), THRA (gene 7067) (UniProt P10827); assay: ATG_THRa1_TRANS: Attagene TRANS-FACTORIAL HepG2 Assay for human Thyroid Receptor alpha (THRa1) (AID 2283014)
Sequence (P10827 whole entry, looked up): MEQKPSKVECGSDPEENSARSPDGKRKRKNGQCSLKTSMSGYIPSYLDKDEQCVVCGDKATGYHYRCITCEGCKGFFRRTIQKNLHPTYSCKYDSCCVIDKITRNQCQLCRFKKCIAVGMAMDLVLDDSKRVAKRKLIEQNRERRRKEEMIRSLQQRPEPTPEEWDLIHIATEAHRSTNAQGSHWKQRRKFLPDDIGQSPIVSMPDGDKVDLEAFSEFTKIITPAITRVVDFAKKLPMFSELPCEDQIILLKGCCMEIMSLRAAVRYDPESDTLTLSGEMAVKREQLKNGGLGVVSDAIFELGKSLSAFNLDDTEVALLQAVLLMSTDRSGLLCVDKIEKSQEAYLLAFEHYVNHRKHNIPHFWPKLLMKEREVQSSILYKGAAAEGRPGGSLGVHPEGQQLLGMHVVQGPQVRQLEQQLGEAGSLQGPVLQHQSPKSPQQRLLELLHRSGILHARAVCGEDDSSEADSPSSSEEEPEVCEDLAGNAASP
Results filed as inconclusive are left out. Calls of active or inactive are those of the source. Rule for the calls: active = hit-call score of the fitted dose curve at least 0.9, where 1 is the maximum; inconclusive = response in the unintended direction; inactive = score below 0.9.
Possible outcomes: 1 (active), 0 (inactive)

>>> answer_label("Oc1c(Br)cc(Br)cc1Br")
1
>>> answer_label("CNC(=O)N(C)c1nc2ccccc2s1")
0
>>> answer_label("CC(C)(c1ccccc1)c1cc(-n2nc3ccccc3n2)c(O)c(C(C)(C)c2ccccc2)c1")
0
>>> answer_label("CC(C)[C@H](C(=O)OC(C#N)c1cccc(Oc2ccccc2)c1)c1ccc(OC(F)F)cc1 (some centres undefined)")
0
>>> answer_label("c1ccc(-c2cccc(-c3ccccc3)c2)cc1")
0
>>> answer_label("Cc1cc(C(C)(C)c2ccc(O)c(C)c2)ccc1O")
0
>>> answer_label("O=C(CCl)NCO")
0
>>> answer_label("CCCCN(CCCC)C(=S)S")
0
>>> answer_label("O=S1(=O)OC(c2cc(Br)c(O)c(Br)c2)(c2cc(Br)c(O)c(Br)c2)c2ccccc21")
0
>>> answer_label("NC(=O)c1ccc(N)nc1")
0
>>> answer_label("CC(C)[N+](=O)[O-]")
0
>>> answer_label("O=NN1CCCCCC1")
0
>>> answer_label("CCOP(=S)(OCC)SCSc1cc(Cl)ccc1Cl")
0
>>> answer_label("CC(=O)C(F)(F)C(F)(F)F")
0
>>> answer_label("COCCl")
0
>>> answer_label("O=NN1CCOCC1")
0
>>> answer_label("Cc1ccc(CCl)cc1")
0
>>> answer_label("O=C1c2ccccc2C(=O)C1C(=O)C(c1ccccc1)c1ccc(Cl)cc1 (centres undefined)")
1
>>> answer_label("C=CC(=O)[O][Sn]([CH2]CCC)([CH2]CCC)[CH2]CCC")
0
>>> answer_label("C=C(C)C(=O)OCC(CC)CCCC (centres undefined)")
0
>>> answer_label("CN(N=O)C(N)=O")
0
>>> answer_label("C=CC(=O)OCC(COC(=O)C=C)(COC(=O)C=C)COC(=O)C=C")
0
>>> answer_label("CCOC(=O)Cc1ccccc1")
0
>>> answer_label("NNCCO")
0
>>> answer_label("CN(C)CCN(C)C")
0
>>> answer_label("Clc1ccc(C(Cl)(Cl)Cl)cn1")
0
>>> answer_label("CN(N=O)c1ccc([N+](=O)[O-])cc1")
0
>>> answer_label("CN(C)[C@@H]1C(=O)C(C(N)=O)=C(O)[C@@]2(O)C(=O)C3=C(O)c4c(O)ccc(Cl)c4[C@@](C)(O)[C@H]3C[C@@H]12")
0
>>> answer_label("OCC(c1ccc(Cl)cc1)c1ccc(Cl)cc1")
0

---

molecular target: Bile acid receptor (Homo sapiens); assay: OT_FXR_FXRSRC1_0480: Odyssey Thera (OT) 8-hour HEK293T Protein-Complementation Assay for Farnesoid X receptor/SRC-1 Co-activator (AID 2283383)
Inconclusive results are not listed. Calls of active or inactive are those of the source. The calls were made as follows: active = hit-call score of the fitted dose curve at least 0.9, where 1 is the maximum; inconclusive = response in the unintended direction; inactive = score below 0.9.
Possible outcomes: yes = active, no = inactive

>>> answer_label("O=S1OC[C@@H]2[C@H](CO1)[C@]1(Cl)C(Cl)=C(Cl)[C@@]2(Cl)C1(Cl)Cl (stereo partly drawn)")
"yes"
>>> answer_label("O=C(NC(=O)c1c(F)cccc1F)Nc1cc(Cl)c(OC(F)(F)C(F)C(F)(F)F)cc1Cl (stereo not drawn)")
"yes"
>>> answer_label("CC1(C)[C@H](C(=O)O[C@H](C#N)c2cccc(Oc3ccccc3)c2)[C@@H]1/C=C(\\Cl)C(F)(F)F")
"no"

FYI, the data here is from PubChem BioAssay (EPA / NIEHS).
